- System: A498 renal
- Test Description: NCI tumour cell line growth inhibition, 48 h; in the data active = GI50 below about 0.43 µM; inactive = the rest
Pick from 1 (yes) for active, 0 (no) for inactive when you respond.

[
  {
    "Compound": "C=C1SC(=Nc2c(C)cc(C)cc2C)N(C(=O)c2sc3ccccc3c2Cl)C12CCCCC2",
    "Label": "0 (no)"
  },
  {
    "Compound": "C1C[OH+]CC[OH+]CCNCC[OH+]CC[OH+]CCN1.[Cl-].[Pt+4]",
    "Label": "0 (no)"
  },
  {
    "Compound": "Oc1ccc(C(c2ccc(O)cc2)c2ccc(Cl)cn2)cc1",
    "Label": "1 (yes)"
  },
  {
    "Compound": "FC(F)(F)c1cc(-c2nnc3n2N=C(N2CCCC2)CS3)cc(C(F)(F)F)c1",
    "Label": "0 (no)"
  },
  {
    "Compound": "COc1cc(/C=C2\\CCC/C(=C\\c3cc(OC)c(O)c(OC)c3)C2=O)cc(OC)c1O",
    "Label": "0 (no)"
  },
  {
    "Compound": "CCN(CC)CCNc1ccc([N+](=O)[O-])c2sc3ccccc3c(=O)c12",
    "Label": "0 (no)"
  }
]

Recorded test outcome, item `C=CCN(/C=C1/C(=O)O[C@H](COC)[C@@]2(C)C1=C(O)C(=O)C1=C2[C@H](OC(C)=O)C[C@]2(C)C(=O)CC[C@@H]12)CC=C` 1 (yes)

Recorded test outcome, item O=[N+]([O-])c1ccc(S(=O)Cc2ccccc2)c([N+](=O)[O-])c1 (stereo not drawn) 0 (no)

Recorded test outcome, item COc1ccc(C2SCC(=O)N2NC(=O)C(O)c2ccccc2)cc1OC (stereo not drawn) 0 (no)

Recorded test outcome, item `O=Nc1c(-c2c(O)[nH]c3ccc([N+](=O)[O-])cc23)[nH]c2ccc(O)cc12` 1 (yes)

Recorded test outcome, item `CC1(C)CC[C@H](Nc2ncc(C(F)(F)F)c(-c3c[nH]c4c(P(C)(C)=O)c(C#N)ccc34)n2)CN1` 0 (no)

Recorded test outcome, item `COc1cc2c(c(OC)c1OC)-c1ccc(N)c(=O)cc1[C@@H](NC(C)=O)CC2` 1 (yes)

Recorded test outcome, item `CCCc1c(CC)c(=N)c2ccccc2n1C` 0 (no)

Source of measurements: PubChem BioAssay (NCI)
